Catalogue of relative viability readings, one per entry.
Test system: HCC-366
protocol: relative viability (nuclei count vs DMSO), 5 days (fraction); higher = more cells survive
conditions: first compound 0.8 µM
readout.label: relative viability

| compound | value.measured |
| --- | --- |
| COc1nc(C)cnc1NS(=O)(=O)c1cccnc1-c1ccc(-c2nnco2)cc1 [Zibotentan] + CC(=O)Nc1cccc(-n2c(=O)n(C3CC3)c(=O)c3c(Nc4ccc(I)cc4F)n(C)c(=O)c(C)c32)c1 [Trametinib] (partner 0.02 µM) | 0.361 |
| O=c1cc(-c2cccc3c2Sc2ccccc2S3)oc(N2CCOCC2)c1 + CS(=O)(=O)N1CCN(Cc2cc3nc(-c4cccc5[nH]ncc45)nc(N4CCOCC4)c3s2)CC1 [Pictilisib] (partner 1 µM) | 0.114 |
| O=c1cc(-c2cccc3c2Sc2ccccc2S3)oc(N2CCOCC2)c1 + N=C(N)NC(=N)NCCc1ccccc1 [Phenformin] (partner 250 µM) | 0.71 |
| COc1nc(C)cnc1NS(=O)(=O)c1cccnc1-c1ccc(-c2nnco2)cc1 [Zibotentan] + Cc1cc(Nc2cc(N3CCN(C)CC3)nc(Sc3ccc(NC(=O)C4CC4)cc3)n2)n[nH]1 [Tozasertib] (partner 0.1 µM) | 0.0627 |
| COc1nc(C)cnc1NS(=O)(=O)c1cccnc1-c1ccc(-c2nnco2)cc1 [Zibotentan] + Cc1nc(NC(=O)N2CCC[C@H]2C(N)=O)sc1-c1ccnc(C(C)(C)C(F)(F)F)c1 [Alpelisib] (partner 2 µM) | 0.474 |
| O=c1cc(-c2cccc3c2Sc2ccccc2S3)oc(N2CCOCC2)c1 + COc1cccc2cc(-c3nc([C@H]4CC[C@H](C(=O)O)CC4)n4ncnc(N)c34)[nH]c12 [OSI-027] (partner 0.5 µM) | 0.692 |
| O=c1cc(-c2cccc3c2Sc2ccccc2S3)oc(N2CCOCC2)c1 + CC(=O)c1c(C)c2cnc(Nc3ccc(N4CCNCC4)cn3)nc2n(C2CCCC2)c1=O [Palbociclib] (partner 0.5 µM) | 0.487 |
| COc1nc(C)cnc1NS(=O)(=O)c1cccnc1-c1ccc(-c2nnco2)cc1 [Zibotentan] + O=C(CCCCCCC(=O)Nc1ccccc1)NO [Vorinostat] (partner 1 µM) | 0.21 |
| COc1nc(C)cnc1NS(=O)(=O)c1cccnc1-c1ccc(-c2nnco2)cc1 [Zibotentan] + COc1cccc2cc(-c3nc([C@H]4CC[C@H](C(=O)O)CC4)n4ncnc(N)c34)[nH]c12 [OSI-027] (partner 0.5 µM) | 0.389 |
| O=c1cc(-c2cccc3c2Sc2ccccc2S3)oc(N2CCOCC2)c1 + O=C(CCCCCCC(=O)Nc1ccccc1)NO [Vorinostat] (partner 1 µM) | 0.297 |

###

System: NCI-H2342
protocol: relative viability (nuclei count vs DMSO), 5 days (fraction); higher = more cells survive
conditions: first compound 0.01 µM

| compound | relative viability |
| --- | --- |
| CCN(CC)CCCCNc1ncc2cc(-c3cc(OC)cc(OC)c3)c(NC(=O)NC(C)(C)C)nc2n1 + CCNC(=O)c1noc(-c2cc(C(C)C)c(O)cc2O)c1-c1ccc(CN2CCOCC2)cc1 [Luminespib] (partner 0.01 µM) | 0.775 |
| CCN(CC)CCCCNc1ncc2cc(-c3cc(OC)cc(OC)c3)c(NC(=O)NC(C)(C)C)nc2n1 + O=C(c1cc(Cc2n[nH]c(=O)c3ccccc23)ccc1F)N1CCN(C(=O)C2CC2)CC1 [Olaparib] (partner 8 µM) | 0.476 |
